// provenance: ChEMBL document CHEMBL6096697

Biological target: Cyclin-dependent kinase 4/cyclin D1 (Homo sapiens, UniProt P11802)
Sequence (P11802 whole entry): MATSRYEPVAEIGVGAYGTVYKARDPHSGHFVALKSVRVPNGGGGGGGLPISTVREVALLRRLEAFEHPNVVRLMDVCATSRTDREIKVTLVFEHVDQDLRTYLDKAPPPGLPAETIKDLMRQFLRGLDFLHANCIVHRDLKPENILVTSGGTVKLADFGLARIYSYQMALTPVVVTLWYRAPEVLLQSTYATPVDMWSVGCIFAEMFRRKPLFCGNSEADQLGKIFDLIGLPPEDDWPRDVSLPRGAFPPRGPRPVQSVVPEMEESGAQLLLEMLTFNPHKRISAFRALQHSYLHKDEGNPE
Sequence (P24385 whole entry, further chain): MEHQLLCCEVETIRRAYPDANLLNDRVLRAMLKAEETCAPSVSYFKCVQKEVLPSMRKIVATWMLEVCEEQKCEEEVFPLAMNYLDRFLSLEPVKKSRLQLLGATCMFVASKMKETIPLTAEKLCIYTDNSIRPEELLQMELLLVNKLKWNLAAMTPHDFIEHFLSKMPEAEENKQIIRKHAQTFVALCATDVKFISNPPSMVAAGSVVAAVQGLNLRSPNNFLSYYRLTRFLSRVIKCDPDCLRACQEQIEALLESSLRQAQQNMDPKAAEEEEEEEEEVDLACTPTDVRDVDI
Experiment: Inhibition of CDK4/cyclin D (unknown origin) using […] incubated for 40 mins in presence of ATP by Kinase-Glo assay
Reported Metric: IC50 (nM)
Numbers only, in nM.

Query :: Which measured IC50 belongs to Cc1cnc(Nc2ccc(S(N)(=O)=O)cc2)nc1Nc1nccs1 , tested on Cyclin-dependent kinase 4/cyclin D1 (Homo sapiens, UniProt P11802)?
Result :: 942

###

Assay: Cmax in Sprague-Dawley rat at 10 mg/kg, po measured for 36 hrs by MRM analysis
Assay type: ADME, organism-based
Conditions: in vivo
Reported Metric: Cmax (ng/mL)
Give bare numbers, in ng/mL.

Query :: Cmax lookup needed for Cc1cnc(Nc2ccc(S(N)(=O)=O)cc2)nc1Nc1nccs1 , thanks.
Result :: 21.1
